target: Phosphatidylinositol 4,5-bisphosphate 3-kinase catalytic subunit alpha isoform (Homo sapiens, UniProt P42336); assay: Inhibition of PI3Kalpha (unknown origin) assessed as reduction in luminescence signaling at 1 uM by kinase-Glo plus luminescent kinase assay
Sequence (P42336 whole entry, canonical isoform): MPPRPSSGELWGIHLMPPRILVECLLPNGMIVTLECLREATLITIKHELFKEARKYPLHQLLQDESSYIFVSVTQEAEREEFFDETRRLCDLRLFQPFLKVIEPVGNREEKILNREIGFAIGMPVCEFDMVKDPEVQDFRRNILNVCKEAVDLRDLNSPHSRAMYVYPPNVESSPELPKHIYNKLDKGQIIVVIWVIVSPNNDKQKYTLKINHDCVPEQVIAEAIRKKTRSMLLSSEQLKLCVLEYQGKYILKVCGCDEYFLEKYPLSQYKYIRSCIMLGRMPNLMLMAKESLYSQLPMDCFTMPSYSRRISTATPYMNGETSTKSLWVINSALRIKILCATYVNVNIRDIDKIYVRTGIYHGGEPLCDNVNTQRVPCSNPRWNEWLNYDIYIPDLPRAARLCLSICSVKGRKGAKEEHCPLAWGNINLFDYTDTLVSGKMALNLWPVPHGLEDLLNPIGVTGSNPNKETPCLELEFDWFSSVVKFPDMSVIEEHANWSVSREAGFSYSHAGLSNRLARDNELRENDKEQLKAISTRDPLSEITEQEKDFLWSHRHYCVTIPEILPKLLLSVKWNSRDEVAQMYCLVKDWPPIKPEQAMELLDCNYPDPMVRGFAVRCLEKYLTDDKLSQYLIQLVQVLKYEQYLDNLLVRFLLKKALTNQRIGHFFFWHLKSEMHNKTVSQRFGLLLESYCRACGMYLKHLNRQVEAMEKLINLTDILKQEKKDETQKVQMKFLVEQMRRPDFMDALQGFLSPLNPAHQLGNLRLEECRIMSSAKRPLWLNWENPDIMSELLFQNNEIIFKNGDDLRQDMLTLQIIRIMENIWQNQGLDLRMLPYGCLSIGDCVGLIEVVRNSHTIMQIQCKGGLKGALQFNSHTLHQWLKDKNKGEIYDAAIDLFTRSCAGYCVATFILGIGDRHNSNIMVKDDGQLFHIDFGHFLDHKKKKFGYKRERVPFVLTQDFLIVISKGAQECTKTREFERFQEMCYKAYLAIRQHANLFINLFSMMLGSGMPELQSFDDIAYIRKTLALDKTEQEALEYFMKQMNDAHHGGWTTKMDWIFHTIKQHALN
VALUE TYPE: inhibition (%)

COMPOUND	VALUE TYPE	READING
CC(=O)Nc1nc2ccc(-c3cnc(Cl)c(NC(=O)c4cccc(Cl)c4)c3)cc2s1	inhibition	93

(A) CC(=O)Nc1nc2ccc(-c3cnc(Cl)c(NC(C#N)c4ccccc4)c3)cc2s1 (centres undefined)
(B) CC(=O)Nc1nc2ccc(-c3cnc(Cl)c(NC(=O)c4ccccc4)c3)cc2s1
(C) CC(=O)Nc1nc2ccc(-c3cnc(Cl)c(NC(=O)c4ccc(F)cc4)c3)cc2s1
Please put the entries in order of rising inhibition. List the labels according to the requested ordering. B, C, A
(B: 9%, C: 48%, A: 85%)

---

biological target: Protein smoothened (Homo sapiens); test: Inhibition of human Smo expressed in human U2OS cells assessed as reduction in BODIPY-cyclopamine fluorescence signaling by competitive displacement assay
Sequence (Q99835 whole entry): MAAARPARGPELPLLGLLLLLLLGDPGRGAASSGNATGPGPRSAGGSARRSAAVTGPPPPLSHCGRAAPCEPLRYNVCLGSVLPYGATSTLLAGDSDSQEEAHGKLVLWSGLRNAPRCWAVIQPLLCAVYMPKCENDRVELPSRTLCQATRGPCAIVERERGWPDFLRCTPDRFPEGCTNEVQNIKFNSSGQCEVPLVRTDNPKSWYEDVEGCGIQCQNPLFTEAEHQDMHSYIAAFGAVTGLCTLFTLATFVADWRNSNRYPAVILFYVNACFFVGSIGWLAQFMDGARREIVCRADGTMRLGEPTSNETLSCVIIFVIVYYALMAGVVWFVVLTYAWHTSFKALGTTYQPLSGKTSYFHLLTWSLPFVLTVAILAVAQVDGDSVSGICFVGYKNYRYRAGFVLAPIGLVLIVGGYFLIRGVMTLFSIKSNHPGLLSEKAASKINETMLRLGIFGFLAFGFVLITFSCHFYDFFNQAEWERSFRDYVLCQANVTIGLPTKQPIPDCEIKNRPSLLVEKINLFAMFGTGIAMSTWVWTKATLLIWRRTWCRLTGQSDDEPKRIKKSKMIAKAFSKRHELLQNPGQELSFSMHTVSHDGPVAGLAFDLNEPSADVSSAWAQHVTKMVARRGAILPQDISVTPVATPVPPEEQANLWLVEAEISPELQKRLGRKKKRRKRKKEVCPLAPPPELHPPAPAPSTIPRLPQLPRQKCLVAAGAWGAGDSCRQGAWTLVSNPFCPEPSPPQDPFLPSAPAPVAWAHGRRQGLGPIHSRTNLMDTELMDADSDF
VALUE TYPE: IC50 (nM)

(P) CC(=O)Nc1nc2ccc(-c3cnc(Cl)c(NC(=O)c4cccc(Cl)c4)c3)cc2s1
(Q) CC(=O)Nc1nc2ccc(-c3cnc(Cl)c(NC(=O)c4ccccc4)c3)cc2s1
Parameter metric = IC50. Return the lower-valued option from P and Q . Which one? Tell me its label. Q
(Q: 5.6 nM, P: 10 nM)

---

target: Protein smoothened (Mus musculus, UniProt P56726); assay: Inhibition of SMO in mouse NIH/3T3 cells assessed as inhibition of SAG-induced hedgehog-mediated luminescence signaling by GRE-luciferase reporter gene assay
Sequence (P56726 whole entry): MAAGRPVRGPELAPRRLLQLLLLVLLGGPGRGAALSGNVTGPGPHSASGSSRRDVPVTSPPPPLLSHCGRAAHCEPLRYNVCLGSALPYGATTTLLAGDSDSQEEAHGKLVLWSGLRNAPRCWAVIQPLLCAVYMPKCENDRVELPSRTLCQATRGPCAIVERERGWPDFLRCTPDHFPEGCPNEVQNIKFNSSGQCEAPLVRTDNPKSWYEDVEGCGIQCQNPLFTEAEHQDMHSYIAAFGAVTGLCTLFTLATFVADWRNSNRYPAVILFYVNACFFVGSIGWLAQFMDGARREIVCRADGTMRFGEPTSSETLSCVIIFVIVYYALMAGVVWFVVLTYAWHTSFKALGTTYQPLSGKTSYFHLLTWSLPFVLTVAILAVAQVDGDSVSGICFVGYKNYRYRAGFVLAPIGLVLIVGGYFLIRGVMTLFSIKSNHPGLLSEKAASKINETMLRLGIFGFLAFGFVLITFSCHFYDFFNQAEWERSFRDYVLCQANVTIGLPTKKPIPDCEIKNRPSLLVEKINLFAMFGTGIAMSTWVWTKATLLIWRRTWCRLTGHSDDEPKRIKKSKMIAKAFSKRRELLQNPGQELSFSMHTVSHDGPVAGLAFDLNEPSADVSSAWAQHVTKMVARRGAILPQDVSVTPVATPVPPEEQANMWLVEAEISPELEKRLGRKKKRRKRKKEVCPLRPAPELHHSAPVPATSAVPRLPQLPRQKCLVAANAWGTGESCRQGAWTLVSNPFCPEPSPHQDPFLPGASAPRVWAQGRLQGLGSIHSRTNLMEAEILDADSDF
VALUE TYPE: IC50 (nM)

(A) CC(=O)Nc1nc2ccc(-c3cnc(Cl)c(NC(C#N)c4ccccc4)c3)cc2s1 (stereo unspecified)
(B) CC(=O)Nc1nc2ccc(-c3cnc(Cl)c(NCc4ccccc4)c3)cc2s1
(C) O=C(Nc1cc(-c2ccc3nc(NC4CC4)sc3c2)cnc1Cl)c1cccc(Cl)c1
// TODO: order the 3 compounds above by IC50, descending List the labels according to the requested ordering. B, C, A
(B: 940 nM, C: 150 nM, A: 100 nM)

---

Measured IC50, listed per entry for reference.
biological target: Protein smoothened (Mus musculus, UniProt P56726); experiment: Inhibition of SMO in mouse NIH/3T3 cells assessed as inhibition of SAG-induced hedgehog-mediated luminescence signaling by GRE-luciferase reporter gene assay

CPD SMILES	READING
CC(=O)Nc1nc2ccc(-c3cnc(Cl)c(NC(=O)C4CC4)c3)cc2s1	> 10 µM
CC(=O)Nc1nc2ccc(-c3cnc(Cl)c(NC(=O)c4ccc(Cl)cc4)c3)cc2s1	> 10 µM

We next turn to a different compound, shown below.
Memo: `CC(=O)Nc1nc2ccc(-c3cnc(Cl)c(NC(=O)c4ccccc4F)c3)cc2s1` , reported IC50: > 10 µM
